TEST PROTOCOL: Phase I plasma pharmacokinetics
Type: in vivo, human
CONDITION SET: human, plasma, iv, 6.2 mg/kg, Cohort 6: 6.2 mg/kg; N = 6; 90-min IV infusion; Cycle 1 Day 8; plasma LC-MS; read-out: Time to peak plasma concentration, Mean (SD)
Ends that are not written are not given here.
QUANTITY: Tmax (min)
State the answer as a number, implicitly in min.

Problem: What does the record list as Tmax for KEFLHPSKVDLPR [SOR-C13] ?
Result: 45.8

====

TEST PROTOCOL: Phase I plasma pharmacokinetics
Assay type: in vivo, human
CONDITION SET: human, plasma, iv, 6.2 mg/kg, Cohort 6: 6.2 mg/kg; N = 6; 90-min IV infusion; Cycle 1 Day 10; plasma LC-MS; read-out: Time to peak plasma concentration, Median
Method: Blood samples were taken on Days 1, 3, 8 and 10 of Cycle 1 to assess the pharmacokinetic (PK) profile of SOR-C13 at the various doses used. Plasma samples for the IV 20 min infusion were taken at pre-infusion, 5, 15 min after the start of infusion and post-infusion at 2, 5, 10 and 30 min and 1, 4 h. Plasma samples for SOR-C13 analysis for the 90 min infusion were taken pre-infusion, at 5, 15 and 45 min after the start of infusion, and at 2, 5, 10 and 30 min post-infusion. […]
Ends that are not written are not given here.
QUANTITY: Tmax (min)
Write down the numeric answer in min and omit the unit.

Problem: Consider the sequence shown here: KEFLHPSKVDLPR [SOR-C13] What is its recorded Tmax?
Result: 30

====

TEST PROTOCOL: Phase I plasma pharmacokinetics
Type: in vivo, human
CONDITION SET: human, plasma, iv, 1.375 mg/kg, Cohort 3: 1.375 mg/kg; N = 3; 90-min IV infusion; Cycle 1 Day 10; plasma LC-MS; read-out: AUCtau, Median
Ends that are not written are not given here.
QUANTITY: AUC(0-t) (ng·h/mL)
Kindly provide the numeric value in ng·h/mL only, without the unit symbol.

Problem: # query: AUC(0-t) of entry KEFLHPSKVDLPR [SOR-C13]
Result: 215

====

TEST PROTOCOL: Phase I plasma pharmacokinetics
Format: in vivo, human
CONDITION SET: human, plasma, iv, 2.75 mg/kg, Cohort 4: 2.75 mg/kg; N = 6; 90-min IV infusion; Cycle 1 Day 3; plasma LC-MS; read-out: AUCtau, Median
Ends that are not written are not given here.
QUANTITY: AUC(0-t)
Enter the number, and then the unit.

Problem: Which AUC(0-t) reading was recorded for the sequence KEFLHPSKVDLPR [SOR-C13] ?
Result: 250 ng·h/mL

====

TEST PROTOCOL: Phase I plasma pharmacokinetics
Assay type: in vivo, human
CONDITION SET: human, plasma, iv, 1.375 mg/kg, Cohort 3: 1.375 mg/kg; N = 3; 90-min IV infusion; Cycle 1 Day 1; plasma LC-MS; read-out: Time to peak plasma concentration, Median
Method: Blood samples were taken on Days 1, 3, 8 and 10 of Cycle 1 to assess the pharmacokinetic (PK) profile of SOR-C13 at the various doses used. Plasma samples for the IV 20 min infusion were taken at pre-infusion, 5, 15 min after the start of infusion and post-infusion at 2, 5, 10 and 30 min and 1, 4 h. Plasma samples for SOR-C13 analysis for the 90 min infusion were taken pre-infusion, at 5, 15 and 45 min after the start of infusion, and at 2, 5, 10 and 30 min post-infusion. […]
Ends that are not written are not given here.
QUANTITY: Tmax (min)
All answers are understood in min, so give the number only.

Problem: Consider the sequence shown here: KEFLHPSKVDLPR [SOR-C13] What is its recorded Tmax?
Result: 45
